experimental protocol: Pharmacokinetics, rat oral study
Assay type: in vivo, Sprague Dawley rats
test settings: male, Sprague Dawley, in vivo, 300 mg/kg, rat plasma, Compound W dosed orally 300 mg/kg in 0.5% MC, label = analyte, read-out: AUC
recorded endpoint: AUC (µg·h/mL)
Supply the numeric figure in µg·h/mL, leaving out any unit text.

Value of measured AUC for the entry CCNC(=O)Nc1nc2cc(-c3cnc(C(C)(C)O)nc3)c(F)c([C@H]3CCCO3)c2[nH]1 : 223

* * *

experimental protocol: Pharmacokinetics, rat oral study
Type: in vivo, Sprague Dawley rats
test settings: male, Sprague Dawley, plasma, 100 mg/kg, Compound W dosed orally 100 mg/kg in 0.5% MC, label = analyte, read-out: AUC
recorded endpoint: AUC (ng·h/mL)
Supply the numeric figure in ng·h/mL, leaving out any unit text.

Value of measured AUC for the entry CCNC(=O)Nc1nc2cc(-c3cnc(C(C)(C)OP(=O)([O-])[O-])nc3)c(F)c([C@H]3CCCO3)c2[nH]1.[Na+].[Na+] : 61

* * *

experimental protocol: Pharmacokinetics, rat oral study
Type: in vivo, Sprague Dawley rats
test settings: male, Sprague Dawley, plasma, 300 mg/kg, Compound W dosed orally 300 mg/kg in 20% CAPT, 1% HPMC-AS, 1% PVP, label = analyte, read-out: AUC
recorded endpoint: AUC (µg·h/mL)
Supply the numeric figure in µg·h/mL, leaving out any unit text.

Value of measured AUC for the entry CCNC(=O)Nc1nc2cc(-c3cnc(C(C)(C)OP(=O)([O-])[O-])nc3)c(F)c([C@H]3CCCO3)c2[nH]1.[Na+].[Na+] [Compound W] : 2.37

* * *

experimental protocol: Pharmacokinetics, monkey oral study
Assay type: in vivo, cynomolgus monkeys
test settings: male, cynomolgus monkey, plasma, po, 100 mg/kg, monkey plasma; Compound W dosed PO 100 mg/kg in 0.5% MC; label = analyte; read-out: AUC
recorded endpoint: AUC (ng·h/mL)
Supply the numeric figure in ng·h/mL, leaving out any unit text.

Value of measured AUC for the entry CCNC(=O)Nc1nc2cc(-c3cnc(C(C)(C)OP(=O)([O-])[O-])nc3)c(F)c([C@H]3CCCO3)c2[nH]1.[Na+].[Na+] : 432

* * *

experimental protocol: Pharmacokinetics, rat oral study
Type: in vivo, Sprague Dawley rats
test settings: male, Sprague Dawley, plasma, 300 mg/kg, Compound W dosed orally 300 mg/kg in 20% CAPT, 1% HPMC-AS, 1% PVP, label = analyte
recorded endpoint: Tmax (h)
Supply the numeric figure in h, leaving out any unit text.

Value of measured Tmax for the entry CCNC(=O)Nc1nc2cc(-c3cnc(C(C)(C)OP(=O)([O-])[O-])nc3)c(F)c([C@H]3CCCO3)c2[nH]1.[Na+].[Na+] : 1.8

* * *

experimental protocol: Pharmacokinetics, monkey oral study
Format: in vivo, cynomolgus monkeys
test settings: male, cynomolgus monkey, plasma, po, 300 mg/kg, monkey plasma; Compound W dosed PO 300 mg/kg in 0.5% MC; label = analyte; read-out: AUC
recorded endpoint: AUC (ng·h/mL)
Supply the numeric figure in ng·h/mL, leaving out any unit text.

Value of measured AUC for the entry CCNC(=O)Nc1nc2cc(-c3cnc(C(C)(C)OP(=O)([O-])[O-])nc3)c(F)c([C@H]3CCCO3)c2[nH]1.[Na+].[Na+] : 3690

* * *

experimental protocol: Seven-day oral (gavage) toxicity and toxicokinetics study in rats
Format: in vivo, Crl:CD(SD) rats
test settings: Crl:CD(SD), rat, in vivo; male rats, 200 mg/kg once a day for 7 days, oral gavage
Experimental: Crl:CD(SD) rats were obtained from Charles River Laboratories of Stone Ridge, N.Y. The animals were laboratory bred and experimentally naïve. Rats were chosen because they are a species that is commonly used for nonclinical toxicity evaluations. Forty rats (20 noncannulated males and 20 males with jugular vein cannulas) were ordered. […] Their supplier-calculated birth date was retained in the study records. […] Prior to start of dosing, body weights were measured for randomization on Day 1. […]
recorded endpoint: AUC at 7 day (µg·h/mL)
Supply the numeric figure in µg·h/mL, leaving out any unit text.

Value of measured AUC at 7 day for the entry CCNC(=O)Nc1nc2cc(-c3cnc(C(C)(C)O)nc3)cc([C@H]3CCCO3)c2[nH]1 : 844
